assay.target: CDK2 (human) (UniProt P24941)
experiment.summary: Enzyme Assay
pIC50: −log10 of the molar value.
property.measured: pIC50

INSERT INTO assay_data (structure_as_smiles, assay_target, reported_result) VALUES
  ('COc1ccc(NC(=O)c2ccc(C(=O)Nc3ccc4c(cnn4C)c3)s2)c(C)c1', 'CDK2 (human) (UniProt P24941)', '≤ 4.40');

Reported pIC50, molecule O=C(Nc1ccc(-n2cncn2)cc1)c1ccc(C(=O)NC2Cc3ccccc3C2)s1 : ____
≤ 4.40

Reported pIC50, molecule C[C@@H](NC(=O)c1ccc(C(=O)Nc2ccc(-n3cncn3)c(F)c2)o1)C1CCCCC1 : ____
4.40 to 6.00

Reported pIC50, molecule O=C(Nc1ccc(-n2cncn2)cc1)c1ccc(C(=O)Nc2cc(-c3ccco3)n[nH]2)s1 : ____
≤ 4.40

Reported pIC50, molecule CC(=O)N1CCC(NC(=O)c2ccc(C(=O)Nc3ccc(-n4cncn4)cc3)s2)CC1 : ____
4.40 to 6.00

Reported pIC50, molecule COc1ccc(NC(=O)c2ccc(C(=O)Nc3ccc(-n4cncn4)cc3)s2)cc1OC : ____
≤ 4.40

Reported pIC50, molecule Cn1nc(C2CC2)cc1NC(=O)c1ccc(C(=O)Nc2ccc(-n3cncn3)cc2)s1 : ____
4.40 to 6.00

Reported pIC50, molecule COc1ccc(N(C)C(=O)c2ccc(C(=O)Nc3ccc(-n4cncn4)cc3)s2)cc1 : ____
4.40 to 6.00

Reported pIC50, molecule O=C(Nc1ccc(-n2cncn2)cc1)c1ccc(C(=O)Nc2ccccn2)s1 : ____
≤ 4.40

Reported pIC50, molecule COc1ccc(NC(=O)c2ccc(C(=O)Nc3ccc(CN)cc3)s2)c(C)c1 : ____
≤ 4.40

Reported pIC50, molecule COc1ccc(NC(=O)c2ccc(C(=O)Nc3ccc4c(c3)OCO4)s2)c(C)c1 : ____
≤ 4.40

* * *

Entries with their measured IC50, system UniProt:P24941:

Reported IC50, molecule O=C(NCc1nc2ccccc2[nH]1)c1ccc(C(=O)Nc2ccc(-n3cncn3)cc2)s1 : ____
≥ 40 µM

Reported IC50, molecule O=C(Nc1ccc(-n2cncn2)c(F)c1)c1ccc(C(=O)Nc2ccccc2N2CCOCC2)s1 : ____
≥ 40 µM

Reported IC50, molecule O=C(Nc1ccccc1)c1ccc(C(=O)Nc2ccc(-n3cncn3)cc2)o1 : ____
1 to 40 µM

Reported IC50, molecule O=C(NC[C@@H]1CCCO1)c1ccc(C(=O)Nc2ccc(-n3cncn3)cc2)s1 : ____
≥ 40 µM

Reported IC50, molecule Cc1cc(N2CCNCC2)ccc1NC(=O)c1ccc(C(=O)Nc2ccc(-n3cncn3)cc2)s1 : ____
≤ 1 µM
